- assay.system: Retinoic acid receptor RXR-alpha (Homo sapiens) (UniProt P19793)
- Sequence (P19793 whole entry, looked up): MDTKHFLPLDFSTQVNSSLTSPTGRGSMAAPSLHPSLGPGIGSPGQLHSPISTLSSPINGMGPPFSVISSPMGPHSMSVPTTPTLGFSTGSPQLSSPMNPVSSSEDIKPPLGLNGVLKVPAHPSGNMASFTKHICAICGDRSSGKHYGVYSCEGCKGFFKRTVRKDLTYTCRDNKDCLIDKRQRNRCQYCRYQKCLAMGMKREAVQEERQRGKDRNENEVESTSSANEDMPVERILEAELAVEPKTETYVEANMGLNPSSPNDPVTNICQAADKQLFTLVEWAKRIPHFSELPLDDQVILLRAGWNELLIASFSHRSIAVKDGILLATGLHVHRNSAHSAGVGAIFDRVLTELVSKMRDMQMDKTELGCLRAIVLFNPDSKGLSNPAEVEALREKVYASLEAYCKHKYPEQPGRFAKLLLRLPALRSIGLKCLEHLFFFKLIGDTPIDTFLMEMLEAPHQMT
- test.details: qHTS assay to identify small molecule agonists of the RXR signaling pathway (AID 1159527); further: on the % scale 0 is the no-effect control and ±100 the full control effect; nearly all actives have a fitted effect of over 35% in size
- condition.info: HEK293T RXRa-UAS-bla, beta-lactamase ratio, 16 h; series mostly up to 76.8 µM
Records with an inconclusive call do not appear. Active and inactive are the calls of the source. The call rests on the fitted dose curve.
test.readout: activation

Solved cases (8 shown):
Answer with reported activation of CCCNC(C)C(=O)Nc1ccccc1C (centres undefined) inactive

Answer with reported activation of CCCCCCC(O)CCCCCCCCCCC(=O)O (centres undefined) inactive

Answer with reported activation of CC(C)(C)NCC(O)c1cc(O)cc(O)c1 (centres undefined) inactive

Answer with reported activation of c1ccc2n[nH]nc2c1 inactive

Answer with reported activation of CC1COc2c(N3CCN(C)CC3)c(F)cc3c(=O)c(C(=O)O)cn1c23 (centres undefined) inactive

Answer with reported activation of CNC1(C)C2CCC(C2)C1(C)C (centres undefined) inactive

Answer with reported activation of CCCN[C@H]1CCc2nc(N)sc2C1 inactive

Answer with reported activation of OCC(CO)N[C@H]1C[C@](O)(CO)[C@@H](O)[C@H](O)[C@H]1O inactive

Hey, quick one: what's activation for each of these?
1. CN1C(=O)c2ccc([N+](=O)[O-])cc2C1=O
2. COC(c1ccccc1)(c1ccccc1)[C@H](Oc1nc(C)cc(C)n1)C(=O)O
3. CCN1CCCC1CNC(=O)c1cc(S(=O)(=O)CC)c(N)cc1OC (centres undefined)
4. CCCCCCCCCCCCCCCCCl
5. O=C(Cl)c1cccc(C(=O)Cl)c1

1: inactive; 2: inactive; 3: inactive; 4: 0.473% [at 15.8 µM] (inactive); 5: inactive

Hey, quick one: what's activation for each of these?
1. COc1ccc(Cc2cnc(N)nc2N)cc1OC
2. O=C(Oc1ccccc1)c1ccccc1O

1: inactive; 2: inactive

Hey, quick one: what's activation for each of these?
1. O
2. O=C(O[C@@H]1Cc2c(O)cc(O)cc2O[C@@H]1c1cc(O)c(O)c(O)c1)c1cc(O)c(O)c(O)c1
3. CCn1cc(C(=O)O)c(=O)c2cc(F)c(N3CCNC(C)C3)c(F)c21 (centres undefined)
4. CCn1c2ccccc2c2cc(N)ccc21
5. CCOC(=O)C(C)C(C)=O (centres undefined)

1. inactive
2. inactive
3. inactive
4. inactive
5. inactive

Hey, quick one: what's activation for each of these?
1. BrC1CCC(Br)C(Br)CCC(Br)C(Br)CCC1Br (centres undefined)
2. CC1=C(C=O)C(C)(C)CC=C1

["inactive", "inactive"]

---

- test.details: qHTS RealTime-Glo MT Cell Viability Assay in HEK293 cells - 8 hour (AID 1224887); further: top concentration of the series differs between compounds; on the % scale 0 is the no-effect control and ±100 the full control effect; nearly all actives have a fitted effect of over 50% in size
- condition.info: RealTime-Glo luminescence; series mostly up to 76.8 µM
Records with an inconclusive call do not appear. Calls of active or inactive are those of the source. Calls follow the shape of the dose curve; as a rule, active = well fitted cell-killing curve with a large enough effect in the repeat runs; inconclusive = weak or mixed curves, or effect the other way; inactive = flat fitted curve, though single readings scatter.
test.readout: activity change, negative = cytotoxicity

Solved cases (4 shown):
Answer with reported activity change, negative = cytotoxicity of CC(C)CCOC(=O)c1ccc(N(C)C)cc1 inactive

Answer with reported activity change, negative = cytotoxicity of CCC(CO)(CO)COCC(CC)(CO)CO inactive

Answer with reported activity change, negative = cytotoxicity of c1cc(C(c2ccc(OCC3CO3)cc2)C(c2ccc(OCC3CO3)cc2)c2ccc(OCC3CO3)cc2)ccc1OCC1CO1 (configuration not stated) inactive

Answer with reported activity change, negative = cytotoxicity of CC(C)(C)c1ccccc1 inactive

Hey, quick one: what's activity change, negative = cytotoxicity for each of these?
1. O=C(O)CCc1ccccc1
2. N[C@@H]1CONC1=O
3. CCc1cc(C(C)(C)C)c(O)c(C(C)(C)C)c1

1. inactive
2. inactive
3. inactive

---

- test.details: qHTS assay for identifying genotoxic compounds that show differential cytotoxicity against isogenic chicken DT40 cell lines with known DNA damage response pathways - Rev3 mutant cell line (AID 743014); further: nearly all actives have a fitted effect of over 55% in size
- condition.info: chicken DT40 Rev3-/- viability, CellTiter-Glo, 40 h; series mostly up to 68.4 µM
Results filed as inconclusive are left out. Active and inactive are the calls of the source. Calls come from the whole dose curve; as a rule, active = well fitted cell-killing curve with a large enough effect in the repeat runs; inconclusive = weak or mixed curves, or effect the other way; inactive = no such curve, though single readings can be large or run the other way.
I would appreciate it if you answered using one of these outcomes: 1 (active), 0 (inactive)

Below, 2 compounds whose answers are already recorded.
Called result for C[N+]1([O-])CCOCC1 0

Called result for OCCN1CCNCC1 1

---
Called result for c1ccc2c(c1)-c1cccc3c1c-2cc1ccccc13 0

Called result for CCn1cc(C(=O)O)c(=O)c2cc(F)c(N3CCNC(C)C3)c(F)c21 (stereo not given) 0

Called result for CCCCC/C=C/CC1CC(=O)OC1=O (stereo not given) 0

Called result for O=C(O)c1cn(-c2ccc(F)cc2)c2cc(N3CCNCC3)c(F)cc2c1=O 0

Called result for CCC[C@H](N[C@@H](C)C(=O)N1[C@H](C(=O)O)C[C@@H]2CCCC[C@@H]21)C(=O)OCC 0

Called result for CCN1CCCC1CNC(=O)c1cc(S(=O)(=O)CC)c(N)cc1OC (stereo not given) 0

Called result for CO[Si](OC)(OC)c1ccccc1 0

Called result for Cc1scc2c1N(C(=O)CN1CCN(C)CC1)c1ccccc1NC2=O 0

Called result for NC(N)=NC(=O)Cc1c(Cl)cccc1Cl 0

Called result for Nc1nc2ccccc2[nH]1 0

Called result for C=CC(=O)OCCCCCCCC 0

---

- test.details: qHTS assay to identify small molecule antagonists of the sonic hedgehog signaling (Shh) pathway - cell viability counter screen (AID 1259367); further: nearly all actives have a fitted effect of over 55% in size
- condition.info: NIH/3T3 Gli1-Luc viability, CellTiter-Fluor, 24 h; series mostly up to 92.4 µM
Records with an inconclusive call do not appear. Active and inactive are the calls of the source. The call rests on the fitted dose curve; in most records, active means well fitted cell-killing curve with a large enough effect in the repeat runs; inconclusive means weak or mixed curves, or effect the other way; inactive means no such curve, though single readings can be large or run the other way.
I would appreciate it if you answered using one of these outcomes: active, inactive

Called result for CCCCC(CC)COC(=O)CC(C(=O)OCC(CC)CCCC)S(=O)(=O)O (configuration not stated) inactive

Called result for CCC[C@H](N[C@@H](C)C(=O)N1[C@H](C(=O)O)C[C@@H]2CCCC[C@@H]21)C(=O)OCC inactive

Called result for O=C(Cl)c1cccc(C(=O)Cl)c1 inactive

Called result for Clc1ccc2c(c1)C(N1CCNCC1)=Nc1ccccc1O2 inactive

Called result for COC(=O)c1cccc(C(=O)OC)c1 inactive

Called result for Cc1cccc(O)c1C inactive

---
Called result for Cc1cc(Cc2cc(C)cc(C(C)(C)C)c2O)c(O)c(C(C)(C)C)c1 active

Called result for c1cc(C(c2ccc(OCC3CO3)cc2)C(c2ccc(OCC3CO3)cc2)c2ccc(OCC3CO3)cc2)ccc1OCC1CO1 (configuration not stated) inactive

Called result for c1ccc2n[nH]nc2c1 inactive

Called result for O=C1CC2(CCCC2)CC(=O)N1CCCCN1CCN(c2ncccn2)CC1 inactive

Called result for CC(C)(c1ccccc1)c1ccc(Nc2ccc(C(C)(C)c3ccccc3)cc2)cc1 inactive

Called result for NC12CC3CC(CC(C3)C1)C2 inactive

Called result for Cc1occc(=O)c1OC(=O)C(C)C inactive

Called result for CCC(C)(Oc1ccc(C2(c3ccc(OC(C)(CC)C(=O)O)cc3)CCCCC2)cc1)C(=O)O (configuration not stated) inactive

Called result for CCOc1ccc2c(c1)C(C)=CC(C)(C)N2 inactive

Called result for CN(C)c1ccc(C(=C2C=CC(=[N+](C)C)C=C2)c2ccccc2)cc1 active

Called result for O=S(=O)(O)c1ccc2nc(-c3ccccc3)[nH]c2c1 inactive

Called result for O=C(O)CP(=O)(O)O inactive

---

- test.details: qHTS RealTime-Glo MT Cell Viability Assay in HepG2 cells - 32 hour (AID 1224877); further: nearly all actives have a fitted effect of over 55% in size
- condition.info: RealTime-Glo luminescence; series mostly up to 76.8 µM
Inconclusive results are not listed. Calls of active or inactive are those of the source. The call rests on the fitted dose curve; in most records, active means well fitted cell-killing curve with a large enough effect in the repeat runs; inconclusive means weak or mixed curves; inactive means flat fitted curve, though single readings scatter.
I would appreciate it if you answered using one of these outcomes: 1 (active), 0 (inactive)

Below, 10 molecules whose answers are already recorded.
Called result for CC(C)(C)NC(=O)[C@@H]1CN(Cc2cccnc2)CCN1C[C@@H](O)C[C@@H](Cc1ccccc1)C(=O)N[C@H]1c2ccccc2C[C@H]1O 0

Called result for O=C(O)c1cc(Cl)cc(Cl)c1 0

Called result for Cc1cccc2n[nH]nc12 0

Called result for CCN(CC)C(=S)SSC(=S)N(CC)CC 1

Called result for c1ccc2n[nH]nc2c1 0

Called result for CC(=O)O[C@]1(C(C)=O)CC[C@H]2[C@@H]3C[C@H](C)C4=CC(=O)CC[C@]4(C)[C@H]3CC[C@@]21C 0

Called result for CN1C(=O)c2ccc([N+](=O)[O-])cc2C1=O 0

Called result for O=Cc1ccc(Cl)cc1 0

Called result for COC(=O)c1cccc(C(=O)OC)c1 0

Called result for CCCOC(=O)c1cc(O)c(O)c(O)c1 0

---
Called result for CCOC(=O)C(C)C(C)=O (stereo unspecified) 0

Called result for O=c1n(CC2CO2)c(=O)n(CC2CO2)c(=O)n1CC1CO1 (stereo unspecified) 0
